Just for reference, patent US10189791B2 is where these values come from.

System: RA W264.7 macrophage-like cells
experiment-description: Inhibition of IFNγ-stimulated nitric oxide release (Griess reaction)
Type: cell-based
condition-parameters: Mus musculus, RAW264.7; 10 ng/ml IFNγ, 24 hour exposure; read-out: IC50 (nM) Mean ± SE, NO production
Description: Because oxidative and inflammatory stress contribute to carcinogenesis (Albini & Sporn (2007) Nature Rev. Cancer 7:139-147), it was determined whether the pyridine analogues could block de novo synthesis of inducible nitric oxide synthase (iNOS), a critical enzyme involved in the inflammatory response (Kroncke, et al. (1998) Clin. Exp. Immunol. 113:147-156; Zamora, et al. (2000) Mol. Med. 6:347-373). […]
readout-type: IC50 (nM)

[[record]]
molecule = "CC1(C)CCC2(C(=O)n3ccnc3)CCC3(C)C(C(=O)C=C4C5(C)C=C(C#N)C(=O)C(C)(C)C5CCC43C)C2C1 (stereo not shown) [CDDO-Im 1, reference compound]"
system = "RA W264.7 macrophage-like cells"
result_value = 2

